IC50: recorded values
System Under Test: MCH receptor (Homo sapiens)
Protocol Details: High throughput functional screening FLIPR/FDSS6000: inhibition of MCH-evoked intracellular Ca2+ changes
Type: cell-based
Settings: class by percent of control at 10^−7 M or by IC50; read-out: class

Worked cases, IC50 given:
# Molecule, Meas Value
measured = [
    ("CN(C)c1nc(N[C@H]2CC[C@@H](NC(=O)C(O)c3cccc(C(F)(F)F)c3)CC2)nc2ccccc12 (relative stereo)", "< 50 nM"),
    ("CN(C)c1nc(N[C@H]2CC[C@@H](NC(=O)c3ccc(Oc4ccccc4F)nc3)CC2)nc2ccccc12", "< 50 nM"),
    ("CN(C)c1nc(N[C@H]2CC[C@@H](C(=O)NCc3ccc(Cl)cc3Cl)CC2)nc2cc(F)c(F)cc12", "< 50 nM"),
]

Alright, here's another molecule for you.
Look up IC50 for this molecule: CN(C)c1nc(N[C@H]2CC[C@@H](NC(=O)c3ccnc(Oc4ccc(Cl)cc4)c3)CC2)nc2ccccc12
< 50 nM
